I'd appreciate it if you could supply viability, T/C values for the items below.
Test system: 624824-186-R-J3-PDC multicell spheroids, viability;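 further: luminescent signal used as a stand-in for spheroid viability; spheroids exposed to agents for seven days before luminescence read; percent viability relative to DMSO vehicle control wells taken as 100%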
Method Description: Anticancer human tumor 624824-186-R-J3-PDC patient-derived colon adenocarcinoma cell line growth inhibition [PI3K]
Conditions Used: second compound 0.00316 µM; first compound 3.16 µM; stronger effect = lower value
One number for each entry, in %.

CC(Cn1ccc(-c2ccc(C#N)c(Cl)c2)n1)NC(=O)c1cc(C(C)O)[nH]n1 (stereo not drawn) + CC(Nc1ccc2c(c1)OCCn1cc(N3C(=O)OCC3C(F)F)nc1-2)C(N)=O | 94.6
C=CC(=O)N1CCN(c2nc(=O)n(-c3c(C)ccnc3C(C)C)c3nc(-c4c(O)cccc4F)c(F)cc23)C(C)C1 (stereo not drawn) + COc1c(OCCCN2CCOCC2)ccc2c3n(c(=NC(=O)c4cnc(N)nc4)nc12)CCN3 | 100
CNC(=O)c1ccc(N2C(=S)N(c3ccc(C#N)c(C(F)(F)F)c3)C(=O)C2(C)C)cc1F + CC(Nc1ccc2c(c1)OCCn1cc(N3C(=O)OCC3C(F)F)nc1-2)C(N)=O | 97
CC(C)NCC(C(=O)N1CCN(c2ncnc3c2C(C)CC3O)CC1)c1ccc(Cl)cc1 (stereo not drawn) + CC(Nc1ccc2c(c1)OCCn1cc(N3C(=O)OCC3C(F)F)nc1-2)C(N)=O | 59.9
CCCS(=O)(=O)Nc1ccc(F)c(C(=O)c2c[nH]c3ncc(-c4ccc(Cl)cc4)cc23)c1F + CC(Nc1ccc2c(c1)OCCn1cc(N3C(=O)OCC3C(F)F)nc1-2)C(N)=O | 71.9

Below are 6 molecules. Give each one its viability, T/C.
1. C=CC(=O)N1CCN(c2nc(=O)n(-c3c(C)ccnc3C(C)C)c3nc(-c4c(O)cccc4F)c(F)cc23)C(C)C1 (stereo not drawn) + CC(Nc1ccc2c(c1)OCCn1cc(N3C(=O)OCC3C(F)F)nc1-2)C(N)=O
2. Cn1nccc1Nc1nccc(-c2ccn(C(CO)c3ccc(Cl)c(F)c3)c(=O)c2)n1 (stereo not drawn) + CC(Nc1ccc2c(c1)OCCn1cc(N3C(=O)OCC3C(F)F)nc1-2)C(N)=O
3. CC1(C)CCC(Nc2ncc(C(F)(F)F)c(-c3c[nH]c4c(P(C)(C)=O)c(C#N)ccc34)n2)CN1 (stereo not drawn) + COc1c(OCCCN2CCOCC2)ccc2c3n(c(=NC(=O)c4cnc(N)nc4)nc12)CCN3
4. C#Cc1c(F)ccc2cc(O)cc(-c3ncc4c(N5CC6CCC(C5)N6)nc(OCC56CCCN5CC(F)C6)nc4c3F)c12 (stereo not drawn) + COc1c(OCCCN2CCOCC2)ccc2c3n(c(=NC(=O)c4cnc(N)nc4)nc12)CCN3
5. CCCS(=O)(=O)Nc1ccc(F)c(C(=O)c2c[nH]c3ncc(-c4ccc(Cl)cc4)cc23)c1F + COc1c(OCCCN2CCOCC2)ccc2c3n(c(=NC(=O)c4cnc(N)nc4)nc12)CCN3
6. Cn1ncc(Cl)c1-c1cc(C(=O)NC(CN)Cc2cccc(F)c2)sc1Cl (stereo not drawn) + COc1c(OCCCN2CCOCC2)ccc2c3n(c(=NC(=O)c4cnc(N)nc4)nc12)CCN3

A:
1: 99.7; 2: 58.8; 3: 95.1; 4: 112; 5: 82.5; 6: 68.5

Please state viability, T/C for every molecule in the list that follows.
1. C#Cc1c(F)ccc2cc(O)cc(-c3ncc4c(N5CC6CCC(C5)N6)nc(OCC56CCCN5CC(F)C6)nc4c3F)c12 (stereo not drawn) + CC(Nc1ccc2c(c1)OCCn1cc(N3C(=O)OCC3C(F)F)nc1-2)C(N)=O
2. CC1(C)CCC(CN2CCN(c3ccc(C(=O)NS(=O)(=O)c4ccc(NCC5CCOCC5)c([N+](=O)[O-])c4)c(Oc4cnc5[nH]ccc5c4)c3)CC2)=C(c2ccc(Cl)cc2)C1 + COc1c(OCCCN2CCOCC2)ccc2c3n(c(=NC(=O)c4cnc(N)nc4)nc12)CCN3
3. CC(Cn1ccc(-c2ccc(C#N)c(Cl)c2)n1)NC(=O)c1cc(C(C)O)[nH]n1 (stereo not drawn) + COc1c(OCCCN2CCOCC2)ccc2c3n(c(=NC(=O)c4cnc(N)nc4)nc12)CCN3
4. C[C@@H](NC(=O)c1ncnc(N)c1Cl)c1ncc(C(=O)Nc2cc(C(F)(F)F)c(Cl)cn2)s1 + COc1c(OCCCN2CCOCC2)ccc2c3n(c(=NC(=O)c4cnc(N)nc4)nc12)CCN3
5. CC(C)NCC(C(=O)N1CCN(c2ncnc3c2C(C)CC3O)CC1)c1ccc(Cl)cc1 (stereo not drawn) + COc1c(OCCCN2CCOCC2)ccc2c3n(c(=NC(=O)c4cnc(N)nc4)nc12)CCN3

A:
104
121
103
99
68.3

Hi! Can you tell me viability, T/C for each of these molecules?
1. CC1(C)CCC(CN2CCN(c3ccc(C(=O)NS(=O)(=O)c4ccc(NCC5CCOCC5)c([N+](=O)[O-])c4)c(Oc4cnc5[nH]ccc5c4)c3)CC2)=C(c2ccc(Cl)cc2)C1 + CC(Nc1ccc2c(c1)OCCn1cc(N3C(=O)OCC3C(F)F)nc1-2)C(N)=O
2. Cn1nccc1Nc1nccc(-c2ccn(C(CO)c3ccc(Cl)c(F)c3)c(=O)c2)n1 (stereo not drawn) + COc1c(OCCCN2CCOCC2)ccc2c3n(c(=NC(=O)c4cnc(N)nc4)nc12)CCN3

A:
[112, 57.7]
